For each of the compounds below, state its H1.0 immunofluorescence intensity.
Tested on: HCC1569
METHOD: H1.0 immunofluorescence intensity relative to DMSO (% of DMSO); higher = stronger H1.0 induction, active = 140 or more;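 further: TDF is a line of transformed human dermal fibroblasts of mesenchymal origin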
PARTICULARS: concentration: 10 µM; 24 h
# output: bare number, no unit

Entry CN(c1nc2ccccc2s1)C1CCN(CC(O)COc2ccc(F)c(F)c2)CC1.Cl.Cl (stereo unspecified) , HCC1569 data, H1.0 immunofluorescence intensity value: 141

COc1ccc2[nH]c3c(c2c1)CCNC3 [6-Methoxy-1,2,3,4-tetrahydro-9H-pyrido[3,4b] indole] tested on HCC1569 gave H1.0 immunofluorescence intensity: 108

Sample O=C1CSC(c2ccccc2Cl)c2cc(Cl)ccc2N1 (stereo unspecified) , system: HCC1569. Its H1.0 immunofluorescence intensity is 115

C#CCNC(C)Cc1ccccc1.Cl (stereo not drawn) [R-(-)-Desmethyldeprenyl hydrochloride] on HCC1569 gives H1.0 immunofluorescence intensity = 90.7

Param item: O.O=P1(N(CCCl)CCCl)NCCCO1 (stereo unspecified) [Cyclophosphamide monohydrate] ; param system: HCC1569; output H1.0 immunofluorescence intensity: 103

The compound Cc1cc(C(=O)CN2CCCC2)c(C)n1-c1ccc(F)cc1 , when measured on HCC1569, yielded H1.0 immunofluorescence intensity of 94.1

Hey, HCC1569 data for O=C(O)c1cc[c]([Hg][Cl])cc1 : H1.0 immunofluorescence intensity came out at 92.6

With HCC1569 as the test system, CCNC1=Nc2ccc(Cl)cc2C(C)(c2ccccc2)O1.Cl (stereo unspecified) showed H1.0 immunofluorescence intensity of 141

Lab note: compound C=CCN1CC(C)N(C(c2ccc(C(=O)N(CC)CC)cc2)c2cccc(OC)c2)CC1C (stereo unspecified) tested on HCC1569; recorded H1.0 immunofluorescence intensity was 87.8

# value of H1.0 immunofluorescence intensity, HCC1569, item Cn1ncnc1COc1nn2c(-c3c(F)cccc3F)nnc2cc1C1CCC1 = 99.6

Reported H1.0 immunofluorescence intensity (HCC1569) for entry Br.CC(Cc1ccc(O)cc1)NCC(O)c1cc(O)cc(O)c1 (stereo unspecified) [Fenoterol hydrobromide] is 112

The value of H1.0 immunofluorescence intensity recorded for CCOP(=O)(OCC)C(C)NC(=O)N(CCCl)N=O (stereo unspecified) when tested on HCC1569 reads 90.6

Assay HCC1569, sample CCC1(C2OC(C3OC(O)(CO)C(C)CC3C)CC2C)CCC(C2(C)CCC3(CC(O)C(C)C(C(C)C(OC)C(C)C(=O)[O-])O3)O2)O1.[Na+] (stereo unspecified) , H1.0 immunofluorescence intensity read: 186

Entry O=[N+]([O-])c1ccc(O[C@@H]2O[C@H](CO)[C@@H](O)[C@H](O)[C@H]2F)c([N+](=O)[O-])c1 [2,4-Dinitrophenyl 2-fluoro-2-deoxy-beta-D-glucopyranoside] ; assay system HCC1569; H1.0 immunofluorescence intensity recorded at 93.2

Measured H1.0 immunofluorescence intensity for this entry CC(C)C1(NC(=O)C2CC3c4cccc5[nH]cc(c45)CC3N(C)C2)OC2(O)C3CCCN3C(=O)C(Cc3ccccc3)N2C1=O.CS(=O)(=O)O (stereo unspecified) [Dihydroergocristine mesylate] on HCC1569: 88.3

Case CC(C)=CCCC1(C)C=Cc2c(O)c3c(c(CC=C(C)C)c2O1)OC12C(=CC4CC1C(C)(C)OC2(CC=C(C)C(=O)O)C4=O)C3=O (stereo unspecified) , HCC1569, H1.0 immunofluorescence intensity recorded as 58.8

====

Test system: TDF
METHOD: H1.0 immunofluorescence intensity relative to DMSO (% of DMSO); higher = stronger H1.0 induction, active = 120 or more
PARTICULARS: concentration: 10 µM; 24 h
Return exactly one item of YES = active, NO = inactive

query: Outcome? Nc1ncnc2c1ccn2C1OC(CO)C(O)C1O (stereo not drawn) [Tubericidin]
result: NO

query: Would you mind telling me which call this test gave CC(C)C1(NC(=O)C2CC3c4cccc5[nH]cc(c45)CC3N(C)C2)OC2(O)C3CCCN3C(=O)C(Cc3ccccc3)N2C1=O (stereo not drawn) [Dihydroergocristine] ?
result: NO

query: Tell me the recorded outcome of this test for CC(C)(O)C1C2OC(=O)C1C1(O)CC3OC34C(=O)OC2C14C (stereo not drawn) [Picrotonin] .
result: NO

query: What outcome does the record of this test show for COc1cc(C2c3cc4c(cc3C(O)C3COC(=O)C23)OCO4)cc(OC)c1OC (stereo not drawn) [Picropodophyllin] ?
result: YES

query: Which outcome was assigned to COc1cc2c(c(OC)c1OC)-c1ccc(OC)c(=O)cc1C(NC(C)=O)CC2 (stereo not drawn) [Colchicine] in this test?
result: YES

query: Please state the recorded outcome for this molecule: O=C(O)C1CCN1 [L-azetidine-2-carboxylic acid]
result: NO

query: For CC1=CC(=O)c2c(O)cccc2C1=O [Plumbagin] , which call appears in the assay record?
result: NO

query: Which outcome did this test record for the molecule Br.CCCN(CCC)CCc1ccc(O)c(O)c1 [Dipropyldopamine hydrobromide] ?
result: NO

query: Which outcome did this test record for the molecule COc1ccc(-n2nc(C(F)(F)F)cc2-c2ccc(Cl)cc2)cc1 ?
result: NO

query: Outcome logged for O=C1CCCN1CC#CCN1CCCC1 [Oxotremorine] in this assay:
result: NO

query: Could you kindly confirm the outcome this assay logged for C[N+](C)(C)CC#CCN1CCCC1=O.[I-] [Oxotremorine methiodide] ?
result: NO

query: Can you look up the reported call for CC(N)c1cccc(Cl)c1Cl.Cl (racemic) for me?
result: NO

query: Fill in: this test's call for CC1CCCC=CC2CC(O)CC2C(O)C=CC(=O)O1 (stereo not drawn) [Brefeldin A] is ___
result: YES

query: Kindly provide the recorded test outcome for the following molecule: CC(C)NP(=O)(NC(C)C)OP(=O)(NC(C)C)NC(C)C [Tetraisopropyl pyrophosphoramide]
result: NO

query: Hey, what did the test say about CCCCCC=CCC(C=CC=CCC=CCCCC(=O)O)OO (stereo not drawn) ?
result: NO

query: I would be grateful if you could indicate the recorded call for CCN(CC)c1ncnc2c1ncn2C1OC(COP(=O)([O-])OP(=O)([O-])C(Br)(Br)P(=O)([O-])O)C(O)C1O.[Na+].[Na+].[Na+] (stereo not drawn) .
result: NO

query: Name the outcome recorded for CCCCCC=CCC=CCC=CCC=CCCCC(=O)NCC(=O)O [N-arachidonylglycine] in the assay.
result: NO

query: Please state the recorded outcome for this molecule: CC(C)(C)c1cc(C=C(C#N)C#N)cc(Br)c1O
result: NO

====

Test system: HCC1569
METHOD: H1.0 immunofluorescence intensity relative to DMSO (% of DMSO); higher = stronger H1.0 induction, active = 140 or more
PARTICULARS: concentration: 10 µM; 24 h
MEASURE NAME: H1.0 immunofluorescence intensity

// field: H1.0 immunofluorescence intensity; key: CC12Cc3cn[nH]c3CC1CCC1C2CCC2(C)C1CCC2(C)O (stereo not drawn) ; value = 87.3 (inactive)

Measured H1.0 immunofluorescence intensity, CC(CCc1ccccc1)NC(C)C(O)c1ccc(O)cc1.Cl (stereo not drawn) [Buphenine.HCl] : 115 (inactive)

The value of H1.0 immunofluorescence intensity measured for the compound COC(=O)C(N)CCCN=C(N)N[N+](=O)[O-].Cl [NG-Nitro-L-arginine methyl ester hydrochloride] turned out to be 92.5 (inactive)

Kindly note the recorded H1.0 immunofluorescence intensity for O=[N+]([O-])c1cc(O)c(O)c([N+](=O)[O-])c1 , which is 97.9 (inactive)

// H1.0 immunofluorescence intensity value for COc1cc(C(O)CN)ccc1O.Cl (racemic) : 94.7 (inactive)

Note to self: H1.0 immunofluorescence intensity recorded for CCC1(C2=NCCN2)Cc2ccccc2O1.Cl (stereo not drawn) [Efaroxan hydrochloride] was 94 (inactive)

Recorded result, Br.COc1c2c(cc3c1OCO3)CCN(C)C2 [Hydrocotarnine HBr] , H1.0 immunofluorescence intensity: 92.6 (inactive)

Record O=S1(=O)N(CCN2CC=C(c3c[nH]c4cc(F)ccc34)CC2)c2cccc3c2N1CCC3 , field H1.0 immunofluorescence intensity: 102 (inactive)

Record O=C1CCCC2C3CCCN4CCCC(CN12)C34 (stereo not drawn) , field H1.0 immunofluorescence intensity: 94.6 (inactive)

Recorded result, NCC1(CC(=O)O)CCCCC1 , H1.0 immunofluorescence intensity: 93.5 (inactive)

Quick note, H1.0 immunofluorescence intensity for CC12CCC3C(CCC4=C(O)C(=O)CCC43C)C1CCC2=O (stereo not drawn) [4-Androsten-4-ol-3,17-dione] landed at 89.7 (inactive)

The recorded H1.0 immunofluorescence intensity for entry CC1=C2CC3C(CC=C4CC(O)CCC43C)C2CCC12OC1CC(C)CNC1C2C (stereo not drawn) equals 92 (inactive)

Measured H1.0 immunofluorescence intensity of CC1OC1P(=O)([O-])[O-].[Na+].[Na+] (stereo not drawn) [Phosphomycin disodium] : 101 (inactive)

The reported value for C[N+]1(C)C2CCC1CC(OC(=O)C(CO)c1ccccc1)C2.[Br-] (stereo not drawn) [Atropine methyl bromide] in terms of H1.0 immunofluorescence intensity is 93.9 (inactive)

Record NC(Cn1ccc(=O)[nH]c1=O)C(=O)O (stereo not drawn) [S(-)-Willardiine] . Reported H1.0 immunofluorescence intensity: 97.6 (inactive)

Lab book: H1.0 immunofluorescence intensity of Nc1ccc(CCN2CCN(c3cccc(C(F)(F)F)c3)CC2)cc1 noted as 107 (inactive)

Summary for this compound, O=c1[nH]c2ccccc2n1C1CCN(Cc2ccc(-c3nc4cc5[nH]cnc5cc4nc3-c3ccccc3)cc2)CC1 : H1.0 immunofluorescence intensity is 131 (inactive)

The compound CCCCCC=CCC=CCC=CCC=CCCCC(=O)NCC(=O)O [N-Arachidonylglycine] showed H1.0 immunofluorescence intensity equal to 95.8 (inactive)
